Run description: In vitro metabolic stability in human liver microsomes
Assay type: in vitro ADME
Condition summary: human, liver microsomes, Table S5, read-out: CLint (L/h/kg) Human (converted)
Readout: log10 of CLint scaled at 5 µM (log10 of the value in L/h/kg)
Parameter value (number): base-10 log of CLint scaled at 5 µM in L/h/kg.

Data request: Look up log10 of CLint scaled at 5 µM for this compound: `O=C(COc1ccc(NC(=O)CCCO)cc1)NCCc1nc2ccccc2[nH]1`
Data returned: 0.18

Data request: What log10 of CLint scaled at 5 µM value was documented for this compound, `COc1ccc2cc(OCC(=O)NCCc3nc4ccccc4[nH]3)ccc2c1` ?
Data returned: 1.41

Data request: # get_value(readout='log10 of CLint scaled at 5 µM', item= `C=CCCn1c(CCNC(=O)COc2ccccc2)nc2ccccc21` )
Data returned: 1.78

Data request: What does the record list as log10 of CLint scaled at 5 µM for `O=C(COc1ccccc1)NCCc1nc2ccccc2n1CCOCc1ccccc1` ?
Data returned: 2.37

Data request: Look up log10 of CLint scaled at 5 µM: `O=C(COc1ccccc1)NCCc1nc2ccccc2n1-c1ccccc1`
Data returned: 1.76

Data request: What value of log10 of CLint scaled at 5 µM has been reported for the following compound? `O=C(COc1ccc2ccc(O)cc2c1)NCCc1nc2ccccc2[nH]1`
Data returned: 0.98

Data request: // log10 of CLint scaled at 5 µM lookup, key: `O=C(COc1ccccc1)NCCc1nc2ccccc2n1CCOc1ccccc1Br`
Data returned: 2.05

Data request: Any idea what log10 of CLint scaled at 5 µM was measured for `Cn1c(CCNC(=O)COc2ccccc2)nc2ccccc21` ?
Data returned: 0.66

Data request: What value of measured log10 of CLint scaled at 5 µM is listed for `CC(=O)Nc1cccc(OCC(=O)NCCc2nc3ccccc3[nH]2)c1` ?
Data returned: 0.84

Data request: Using the record for `O=C(COc1cccc(N2C(=O)CCC2=O)c1)NCCc1nc2ccccc2[nH]1` , report its log10 of CLint scaled at 5 µM.
Data returned: 0.55

Data request: For O=C(Cn1ccnc1[N+](=O)[O-])NCc1ccccc1 [BZ, benznidazole, reference compound] , what is its reported log10 of CLint scaled at 5 µM?
Data returned: 0.18

Data request: Would you kindly share the measured log10 of CLint scaled at 5 µM for `O=C(COc1cccc([N+](=O)[O-])c1)NCCc1nc2ccccc2[nH]1` ?
Data returned: 0.82

Data request: # lookup: log10 of CLint scaled at 5 µM of `COCCn1c(CCNC(=O)COc2ccccc2)nc2ccccc21`
Data returned: 1.36

====

Run description: Fraction unbound by equilibrium dialysis
Format: in vitro ADME
Condition summary: pH 7.4; Table 5; fraction unbound used to correct CLint
Give fraction unbound at 4 h, 1 µM for every item shown.
Please give the numeric answer without any surrounding text.

Data request: // query fraction unbound at 4 h, 1 µM value for entry `Cc1ccccc1OCC(=O)NCCc1nc2ccccc2[nH]1`
Data returned: 0.8

Data request: // lookup fraction unbound at 4 h, 1 µM for `O=C(COc1ccc2ccccc2c1)NCCc1nc2ccccc2[nH]1`
Data returned: 0.5

Data request: Query (compound): O=C(Cn1ccnc1[N+](=O)[O-])NCc1ccccc1 [BZ, benznidazole, reference compound] ; field requested: fraction unbound at 4 h, 1 µM
Data returned: 1

Data request: Could you tell me which fraction unbound at 4 h, 1 µM is on file for `O=C(COc1ccccc1[N+](=O)[O-])NCCc1nc2ccccc2[nH]1` ?
Data returned: 0.7

Data request: Item `C=CCCn1c(CCNC(=O)COc2ccccc2Cl)nc2ccccc21` has what recorded fraction unbound at 4 h, 1 µM?
Data returned: 0.5

Data request: Given the compound `O=C(COc1ccccc1Br)NCCc1nc2ccccc2[nH]1` , what is its reported fraction unbound at 4 h, 1 µM?
Data returned: 0.6

Data request: What does the record list as fraction unbound at 4 h, 1 µM for `O=C(CCc1ccccc1Br)NCCc1nc2ccccc2[nH]1` ?
Data returned: 0.8

Data request: Quick one: fraction unbound at 4 h, 1 µM for `O=C(COc1ccc2ccccc2c1Br)NCCc1nc2ccccc2[nH]1` ?
Data returned: 0.1

Data request: Need fraction unbound at 4 h, 1 µM of `Cc1ccccc1OCC(=O)NCCc1nc2ccccc2o1` , thanks.
Data returned: 0.9

Data request: Fill in: fraction unbound at 4 h, 1 µM of `O=C(COc1ccc(Br)cc1)NCCc1nc2ccccc2[nH]1` is ___
Data returned: 0.8

Data request: fraction unbound at 4 h, 1 µM for `N#Cc1ccccc1OCC(=O)NCCc1nc2ccccc2[nH]1` ?
Data returned: 0.9
